- System: Botrytis cinerea (B05.10)
- Test summary: Resazurin antifungal assay of 180 alpha-factor peptide variants towards Botrytis (Example 2)
- Format: cell-based
- Condition summary: % inhibition of fungal growth, Botrytis conidia, peptide 100 μM, resazurin
Peptide text beside a SMILES is read from it.
Measurement type: Inhibition at 100 μM (%)
Give a bare numeral; the unit % is implied.

Measured Inhibition at 100 μM of CC[C@H](C)[C@H](NC(=O)[C@H](CCSC)NC(=O)[C@H](Cc1c[nH]cn1)NC(=O)[C@@H](N)CCCCN)C(=O)N[C@@H](CCC(N)=O)C(=O)N[C@@H](CC(C)C)C(=O)N[C@@H](Cc1ccc(O)cc1)C(=O)N[C@@H](Cc1c[nH]c2ccccc12)C(=O)NCC(=O)N[C@@H](CCC(N)=O)C(=O)N1CCC[C@H]1C(=O)N[C@@H](CCSC)C(=O)N[C@@H](Cc1ccc(O)cc1)C(=O)O [compound 54] (H-KHMIQLYWGQPMY-OH; N-terminus and C-terminus assumed) : 100

---

For each of the compounds below, state its Inhibition at 100 μM.
- Tested on: Botrytis cinerea (B05.10)
- Test summary: Resazurin antifungal assay of 180 alpha-factor peptide variants towards Botrytis (Example 2)
- Format: cell-based
- Condition summary: % inhibition of fungal growth, Botrytis conidia, peptide 100 μM, resazurin
Peptide text beside a SMILES is read from it.

With Botrytis cinerea (B05.10) as the test system, CC[C@H](C)[C@H](NC(=O)[C@H](CCC(N)=O)NC(=O)[C@H](CC(C)C)NC(=O)[C@H](Cc1c[nH]c2ccccc12)NC(=O)[C@H](CCCNC(=N)N)NC(=O)[C@@H]1CCCN1)C(=O)N[C@@H](CCCCN)C(=O)N[C@@H](CCCCN)C(=O)NCC(=O)N[C@@H](CCC(N)=O)C(=O)N[C@@H](CO)C(=O)N[C@@H](CCSC)C(=O)N[C@@H](Cc1ccc(O)cc1)C(=O)O [compound 63] (H-PRWLQIKKGQSMY-OH; N-terminus and C-terminus assumed) showed Inhibition at 100 μM of 100%

With Botrytis cinerea (B05.10) as the test system, CSCC[C@H](NC(=O)[C@@H]1CCCN1C(=O)[C@H](CCC(N)=O)NC(=O)CNC(=O)[C@@H]1CCCN1C(=O)[C@H](CCCCN)NC(=O)[C@H](Cc1ccccc1)NC(=O)[C@H](CCC(N)=O)NC(=O)CNC(=O)[C@H](Cc1c[nH]c2ccccc12)NC(=O)[C@H](CO)NC(=O)[C@@H](N)CCCCN)C(=O)N[C@@H](Cc1ccc(O)cc1)C(=O)O [compound 39] (H-KSWGQFKPGQPMY-OH; N-terminus and C-terminus assumed) showed Inhibition at 100 μM of <90%

With Botrytis cinerea (B05.10) as the test system, CSCC[C@H](NC(=O)[C@H](Cc1c[nH]cn1)NC(=O)[C@@H](N)CCCCN)C(=O)N[C@@H](CC(C)C)C(=O)N[C@@H](CCCNC(=N)N)C(=O)N[C@@H](Cc1ccccc1)C(=O)N[C@@H](CCCCN)C(=O)N1CCC[C@H]1C(=O)NCC(=O)N[C@@H](CCC(N)=O)C(=O)N1CCC[C@H]1C(=O)N[C@@H](CCSC)C(=O)N[C@@H](Cc1ccc(O)cc1)C(=O)O [compound 84] (H-KHMLRFKPGQPMY-OH; N-terminus and C-terminus assumed) showed Inhibition at 100 μM of 100%

With Botrytis cinerea (B05.10) as the test system, CSCC[C@H](NC(=O)[C@H](CO)NC(=O)[C@H](CCC(N)=O)NC(=O)CNC(=O)[C@H](CCCNC(=N)N)NC(=O)[C@H](Cc1c[nH]c2ccccc12)NC(=O)[C@H](Cc1ccccc1)NC(=O)[C@H](CCC(N)=O)NC(=O)[C@H](CC(C)C)NC(=O)[C@H](Cc1c[nH]c2ccccc12)NC(=O)[C@H](Cc1c[nH]cn1)NC(=O)[C@@H](N)Cc1c[nH]c2ccccc12)C(=O)N[C@@H](Cc1ccc(O)cc1)C(=O)O [compound 1] (H-WHWLQFWRGQSMY-OH; N-terminus and C-terminus assumed) showed Inhibition at 100 μM of 100%

With Botrytis cinerea (B05.10) as the test system, CC[C@H](C)[C@H](NC(=O)[C@H](CCCNC(=N)N)NC(=O)[C@H](CC(C)C)NC(=O)[C@H](Cc1c[nH]c2ccccc12)NC(=O)[C@H](Cc1c[nH]cn1)NC(=O)[C@@H](N)CCCCN)C(=O)N[C@@H](CCCCN)C(=O)N[C@@H](Cc1c[nH]c2ccccc12)C(=O)NCC(=O)N[C@@H](CCC(=O)O)C(=O)N1CCC[C@H]1C(=O)N[C@@H](CCSC)C(=O)N[C@@H](Cc1ccc(O)cc1)C(=O)O [compound 52] (H-KHWLRIKWGEPMY-OH; N-terminus and C-terminus assumed) showed Inhibition at 100 μM of 100%

---

For each of the molecules below, state its Inhibition at 100 μM.
- System: Botrytis cinerea (B05.10)
- Test summary: Resazurin antifungal assay of 180 alpha-factor peptide variants towards Botrytis (Example 2)
- Assay type: cell-based
- Condition summary: % inhibition of fungal growth, Botrytis conidia, peptide 100 μM, resazurin
Peptide text beside a SMILES is read from it.

Measured Inhibition at 100 μM of CSCC[C@H](NC(=O)[C@@H]1CCCN1C(=O)[C@H](CCC(N)=O)NC(=O)CNC(=O)[C@@H]1CCCN1C(=O)[C@H](Cc1ccccc1)NC(=O)[C@H](CC(C)C)NC(=O)[C@H](CCC(N)=O)NC(=O)[C@@H](NC(=O)[C@H](Cc1c[nH]c2ccccc12)NC(=O)[C@H](Cc1c[nH]cn1)NC(=O)[C@@H](N)CCCCN)C(C)C)C(=O)N[C@@H](Cc1ccc(O)cc1)C(=O)O [compound 144] (H-KHWVQLFPGQPMY-OH; N-terminus and C-terminus assumed) : 99.99%

Measured Inhibition at 100 μM of CC[C@H](C)[C@H](NC(=O)[C@H](CCC(N)=O)NC(=O)[C@H](CC(C)C)NC(=O)CNC(=O)[C@H](CO)NC(=O)[C@@H]1CCCN1)C(=O)N[C@@H](CCCCN)C(=O)N[C@H](C(=O)NCC(=O)N[C@@H](CCC(N)=O)C(=O)N1CCC[C@H]1C(=O)N[C@@H](CCSC)C(=O)N[C@@H](Cc1ccc(O)cc1)C(=O)O)C(C)C [compound 121] (H-PSGLQIKVGQPMY-OH; N-terminus and C-terminus assumed) : <90%

Measured Inhibition at 100 μM of CSCC[C@H](NC(=O)[C@@H]1CCCN1C(=O)[C@H](CCC(N)=O)NC(=O)CNC(=O)[C@H](CCCNC(=N)N)NC(=O)[C@H](CCCCN)NC(=O)[C@H](CC(C)C)NC(=O)[C@@H](NC(=O)[C@H](CC(C)C)NC(=O)[C@H](CC(=O)O)NC(=O)[C@H](CCCNC(=N)N)NC(=O)[C@@H]1CCCN1)[C@@H](C)O)C(=O)N[C@@H](Cc1ccc(O)cc1)C(=O)O [compound 141] (H-PRDLTLKRGQPMY-OH; N-terminus and C-terminus assumed) : <90%

Measured Inhibition at 100 μM of CSCC[C@H](NC(=O)[C@@H]1CCCN1C(=O)[C@H](CCC(N)=O)NC(=O)CNC(=O)[C@@H]1CCCN1C(=O)[C@H](Cc1c[nH]c2ccccc12)NC(=O)[C@H](Cc1ccccc1)NC(=O)[C@H](CCC(N)=O)NC(=O)[C@@H](NC(=O)[C@H](CO)NC(=O)[C@H](Cc1c[nH]cn1)NC(=O)[C@@H](N)Cc1c[nH]c2ccccc12)C(C)C)C(=O)N[C@@H](Cc1ccc(O)cc1)C(=O)O [compound 178] (H-WHSVQFWPGQPMY-OH; N-terminus and C-terminus assumed) : 97.30%

Measured Inhibition at 100 μM of CSCC[C@H](NC(=O)[C@@H]1CCCN1C(=O)[C@H](CCC(N)=O)NC(=O)CNC(=O)[C@@H]1CCCN1C(=O)[C@H](Cc1c[nH]c2ccccc12)NC(=O)[C@H](CC(C)C)NC(=O)[C@H](CCCCN)NC(=O)[C@H](CC(C)C)NC(=O)[C@H](Cc1ccccc1)NC(=O)[C@H](Cc1c[nH]cn1)NC(=O)[C@@H](N)CCCCN)C(=O)N[C@@H](Cc1ccc(O)cc1)C(=O)O [compound 17] (H-KHFLKLWPGQPMY-OH; N-terminus and C-terminus assumed) : 100%

Measured Inhibition at 100 μM of CC[C@H](C)[C@H](NC(=O)[C@H](Cc1c[nH]c2ccccc12)NC(=O)[C@H](Cc1c[nH]cn1)NC(=O)[C@@H](N)Cc1c[nH]c2ccccc12)C(=O)N[C@@H](CC(N)=O)C(=O)N[C@@H](CC(C)C)C(=O)N[C@@H](Cc1c[nH]c2ccccc12)C(=O)N1CCC[C@H]1C(=O)NCC(=O)N[C@@H](CCC(N)=O)C(=O)N1CCC[C@H]1C(=O)N[C@@H](CCSC)C(=O)N[C@@H](Cc1ccc(O)cc1)C(=O)O [compound 114] (H-WHWINLWPGQPMY-OH; N-terminus and C-terminus assumed) : 100%

Measured Inhibition at 100 μM of CSCC[C@H](NC(=O)[C@@H]1CCCN1C(=O)[C@H](CCC(N)=O)NC(=O)CNC(=O)[C@@H]1CCCN1C(=O)[C@H](CC(=O)O)NC(=O)[C@H](Cc1ccccc1)NC(=O)[C@H](CCC(=O)O)NC(=O)[C@@H](NC(=O)[C@H](Cc1c[nH]c2ccccc12)NC(=O)[C@H](Cc1c[nH]cn1)NC(=O)[C@@H]1CCCN1)C(C)C)C(=O)N[C@@H](Cc1ccc(O)cc1)C(=O)O [compound 128] (H-PHWVEFDPGQPMY-OH; N-terminus and C-terminus assumed) : <90%

Measured Inhibition at 100 μM of CSCC[C@H](NC(=O)[C@@H]1CCCN1C(=O)[C@H](CCC(N)=O)NC(=O)CNC(=O)[C@H](CC(N)=O)NC(=O)[C@H](CCCCN)NC(=O)[C@H](CC(C)C)NC(=O)[C@H](CO)NC(=O)CNC(=O)[C@H](Cc1c[nH]c2ccccc12)NC(=O)[C@H](CCCCN)NC(=O)[C@@H](N)Cc1c[nH]c2ccccc12)C(=O)N[C@@H](Cc1ccc(O)cc1)C(=O)O [compound 98] (H-WKWGSLKNGQPMY-OH; N-terminus and C-terminus assumed) : 100%

Measured Inhibition at 100 μM of CC[C@H](C)[C@H](NC(=O)[C@H](CCCCN)NC(=O)[C@H](CC(C)C)NC(=O)[C@H](Cc1ccccc1)NC(=O)[C@H](Cc1c[nH]cn1)NC(=O)[C@@H](N)CCCCN)C(=O)N[C@@H](CCCCN)C(=O)N1CCC[C@H]1C(=O)NCC(=O)N[C@@H](CCC(N)=O)C(=O)N1CCC[C@H]1C(=O)N[C@@H](CCSC)C(=O)N[C@@H](Cc1ccc(O)cc1)C(=O)O [compound 86] (H-KHFLKIKPGQPMY-OH; N-terminus and C-terminus assumed) : 100%
